Cited source: patent US12668589B2

Measured bioavailability of individual entries
- Measurement Notes: In-vivo pharmacokinetic experiments on rats
- Design: species or system SD rats
- Condition Summary: both sexes, SD, plasma, po; Rat PK p.o 30 mg/kg
Metric: bioavailability (%)

substance_smiles=Cc1ccc(C2=NN(C(=O)N[C@H](C)c3ccc(C(F)(F)F)nc3)C[C@@H]2N2CCOC2=O)cc1 metric=bioavailability assay_value=36
substance_smiles=CCOC(=O)N(C)[C@H]1CN(C(=O)N[C@H](C)c2cnc(C(F)(F)F)nc2)N=C1c1ccc(C)cc1 metric=bioavailability assay_value=86

----------
Measured half-life of individual entries
- Measurement Notes: In-vivo pharmacokinetic experiments on rats
- Set-up: species or system SD rats
- Condition Summary: both sexes, SD, plasma, po; Rat PK p.o 30 mg/kg
Metric: half-life (min)

substance_smiles=Cc1ccc(C2=NN(C(=O)N[C@H](C)c3ccc(C(F)(F)F)nc3)C[C@@H]2N2CCOC2=O)cc1 metric=half-life assay_value=163
substance_smiles=CCOC(=O)N(C)[C@H]1CN(C(=O)N[C@H](C)c2cnc(C(F)(F)F)nc2)N=C1c1ccc(C)cc1 metric=half-life assay_value=134
